Hi there, I'd appreciate the recorded Testicular TAC for every entry that follows.
- System: testis of I/R rats
- ASSAY_NAME: Testicular TAC in testis of I/R rats
- Type: in vivo
- STATED_CONDITIONS: i.p. 1 h before ischemia, dose equivalent to 30 mg NAC, mean ± S.E.M, n=6
Numbers only, in mmol/g tissue.

Answered examples (5):
Cc1ccc2[nH]c(=O)cc(-n3cc(COc4cc(=O)[nH]c5ccccc45)nn3)c2c1
4.62
COc1ccc2[nH]c(=O)cc(-n3cc(COc4cc(=O)[nH]c5ccccc45)nn3)c2c1
4.78
Cn1c(=O)cc(-n2cc(COc3cc(=O)[nH]c4ccccc34)nn2)c2ccccc21
1.89
COc1ccc2[nH]c(=O)cc(OCc3cn(-c4cc(=O)[nH]c5ccccc45)nn3)c2c1
3.34
Cc1ccc2[nH]c(=O)cc(OCc3cn(-c4cc(=O)[nH]c5ccccc45)nn3)c2c1
3.34

# return Testicular TAC for each item in the list
1. O=c1cc(OCc2cn(-c3cc(=O)[nH]c4ccccc34)nn2)c2ccccc2[nH]1
2. Cc1ccc2[nH]c(=O)cc(OCc3cn(-c4cc(=O)[nH]c5ccc(C)cc45)nn3)c2c1

Return:
[5.48, 1.73]

* * *

ENDPOINT_LABEL: melting point

Cc1ccc2[nH]c(=O)cc(-n3cc(COc4cc(=O)[nH]c5ccccc45)nn3)c2c1 [6b]
298 °C
COc1ccc2[nH]c(=O)cc(OCc3cn(-c4cc(=O)[nH]c5ccccc45)nn3)c2c1 [6g]
300 to 302 °C
O=c1cc(OCc2cn(-c3cc(=O)[nH]c4ccccc34)nn2)c2ccccc2[nH]1 [6a]
300 to 302 °C

For every item in the list below, what is its measured melting point?
1. COc1ccc2[nH]c(=O)cc(-n3cc(COc4cc(=O)[nH]c5ccccc45)nn3)c2c1 [6c]
2. Cn1c(=O)cc(-n2cc(COc3cc(=O)[nH]c4ccccc34)nn2)c2ccccc21 [6d]
3. Cc1ccc2[nH]c(=O)cc(OCc3cn(-c4cc(=O)[nH]c5ccccc45)nn3)c2c1 [6e]
4. Cc1ccc2[nH]c(=O)cc(OCc3cn(-c4cc(=O)[nH]c5ccc(C)cc45)nn3)c2c1 [6f]

Return:
["295 to 297 °C", "285 to 287 °C", "272 to 274 °C", "270 to 272 °C"]

* * *

Consider the following compounds; for each one, report its Testicular MDA.
- Test system: testis of I/R rats
- ASSAY_NAME: Testicular MDA in testis of I/R rats
- Format: in vivo
- STATED_CONDITIONS: i.p. 1 h before ischemia, dose equivalent to 30 mg NAC, mean ± S.E.M, n=6
Give bare numbers, in nmol/g tissue.

Worked examples, 5 compounds total:
Cc1ccc2[nH]c(=O)cc(OCc3cn(-c4cc(=O)[nH]c5ccccc45)nn3)c2c1 [6e]
85.00
Cn1c(=O)cc(-n2cc(COc3cc(=O)[nH]c4ccccc34)nn2)c2ccccc21 [6d]
117.50
COc1ccc2[nH]c(=O)cc(-n3cc(COc4cc(=O)[nH]c5ccccc45)nn3)c2c1 [6c]
64.93
COc1ccc2[nH]c(=O)cc(OCc3cn(-c4cc(=O)[nH]c5ccccc45)nn3)c2c1 [6g]
89.59
O=c1cc(OCc2cn(-c3cc(=O)[nH]c4ccccc34)nn2)c2ccccc2[nH]1 [6a]
62.38

Your task in this section: give Testicular MDA for each listed record.
1. Cc1ccc2[nH]c(=O)cc(OCc3cn(-c4cc(=O)[nH]c5ccc(C)cc45)nn3)c2c1 [6f]
2. Cc1ccc2[nH]c(=O)cc(-n3cc(COc4cc(=O)[nH]c5ccccc45)nn3)c2c1 [6b]

Return:
117.00
61.84

meta.source: paper PMC7672604
